# experiment notes: Ratio of drug level in brain to plasma in Sprague-Dawley rat at 10 mg/kg, po after 30 mins
# Format: ADME, organism-based
# Design: dose 10 mg/kg, route oral
# reported conditions: brain and plasma, read-out: BPR
attribute measured: Kp at 0.5 h

Example entries begin here.
1) CC(=O)N1CCC(c2nc(C)c3sc4cc(OCc5ccc6ccccc6n5)ccc4n23)CC1: 0.42
2) Cc1nc(C2CCOCC2)n2c1sc1cc(OCc3ccc4ccccc4n3)ccc12: 1.82
3) Cc1nc([C@@]23COC[C@@H]2C3)n2c1sc1cc(OCc3ccc4ccccc4n3)ccc12: 2.62

1 = Cc1nc([C@]23COC[C@H]2C3)n2c1sc1cc(OCc3ccc4ccccc4n3)ccc12
2 = CC(=O)N1CC(c2nc(C)c3sc4cc(OCc5ccc6ccccc6n5)ccc4n23)C1
Request: Param metric = Kp at 0.5 h; output whichever of 1 , 2 has the minimum value. Identify your pick by its label.
Result: 2
(2: 0.45, 1: 1.86)
